assay-system: hRPA;RPAIN (human;human, UniProt P27694;P15927;P35244;Q86UA6 1-616;1-270;1-121;1-219, |)
Sequence (P27694 whole entry, chain 1 of 4): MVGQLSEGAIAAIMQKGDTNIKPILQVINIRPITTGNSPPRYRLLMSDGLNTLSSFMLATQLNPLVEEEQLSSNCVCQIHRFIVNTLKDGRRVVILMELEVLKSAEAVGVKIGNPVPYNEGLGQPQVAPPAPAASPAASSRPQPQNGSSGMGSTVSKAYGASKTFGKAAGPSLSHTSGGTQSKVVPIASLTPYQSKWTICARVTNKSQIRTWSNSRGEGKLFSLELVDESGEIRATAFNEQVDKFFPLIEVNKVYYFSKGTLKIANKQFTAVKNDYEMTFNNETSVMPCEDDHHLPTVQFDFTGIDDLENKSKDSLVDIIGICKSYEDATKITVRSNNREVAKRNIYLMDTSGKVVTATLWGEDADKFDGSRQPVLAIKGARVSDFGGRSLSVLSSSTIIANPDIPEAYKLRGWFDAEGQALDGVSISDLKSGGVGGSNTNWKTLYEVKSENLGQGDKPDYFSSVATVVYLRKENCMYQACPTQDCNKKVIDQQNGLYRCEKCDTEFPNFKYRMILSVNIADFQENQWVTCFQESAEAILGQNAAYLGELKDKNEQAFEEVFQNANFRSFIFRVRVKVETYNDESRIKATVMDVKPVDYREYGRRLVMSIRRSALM
Sequence (P15927 whole entry, chain 2 of 4): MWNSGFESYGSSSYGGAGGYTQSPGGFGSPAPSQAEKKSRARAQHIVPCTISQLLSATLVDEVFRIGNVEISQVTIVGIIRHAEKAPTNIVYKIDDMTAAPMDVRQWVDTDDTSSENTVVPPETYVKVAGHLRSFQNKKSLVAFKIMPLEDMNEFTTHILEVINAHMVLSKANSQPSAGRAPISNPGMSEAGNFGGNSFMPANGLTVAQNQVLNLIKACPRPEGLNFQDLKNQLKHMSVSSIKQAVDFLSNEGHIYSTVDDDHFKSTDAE
Sequence (P35244 whole entry, chain 3 of 4): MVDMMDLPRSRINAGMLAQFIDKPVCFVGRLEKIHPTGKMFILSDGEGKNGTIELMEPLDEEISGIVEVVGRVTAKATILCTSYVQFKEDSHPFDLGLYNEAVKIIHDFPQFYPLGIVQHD
Sequence (Q86UA6 whole entry, chain 4 of 4): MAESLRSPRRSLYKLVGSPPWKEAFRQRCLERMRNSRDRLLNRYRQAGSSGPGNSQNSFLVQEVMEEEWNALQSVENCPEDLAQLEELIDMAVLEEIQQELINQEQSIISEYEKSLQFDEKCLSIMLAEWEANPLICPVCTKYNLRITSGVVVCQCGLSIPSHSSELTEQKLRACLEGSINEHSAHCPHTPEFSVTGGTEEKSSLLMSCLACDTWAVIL
experimental-details: EMSA
measurement-name: pKd
One number for each entry, as −log10 of the molar value.

Specify pKd for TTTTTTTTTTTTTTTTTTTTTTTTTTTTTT (ssDNA) [5'-Cy5-(dT)30] and stop.
7.93
